Let's look at some compounds and their measured pIC50.
Target: CDK2/CycE1 (Homo sapiens, UniProt P24941)
Assay: In vitro kinase TR-FRET assay CDK2/CycE1
Format: biochemical
Conditions: enzyme 0.6 nM, ATP 82 μM, read-out: CDK2 cyclinE1 activity assay: IC50
pIC50: −log10 of the molar value.
metric-name: pIC50

>  <smiles-record>
Cc1ccc(Nc2cc([C@H]3CC[C@@H](OC(=O)NC(C)C)C3)[nH]n2)c2c1S(=O)(=O)CC2

>  <obs-value>
> 7.30

$$$$
>  <smiles-record>
CC(C)NC(=O)O[C@@H]1CC[C@H](c2cc(Nc3ccc4c(c3)CCC4=O)n[nH]2)C1

>  <obs-value>
> 7.30

$$$$
>  <smiles-record>
CC(C)NC(=O)O[C@H]1CC[C@@H](c2cc(Nc3ccc4c(c3)S(=O)(=O)CC4)n[nH]2)CC1

>  <obs-value>
> 7.30

$$$$
>  <smiles-record>
CC(C)NC(=O)O[C@@H]1CC[C@H](c2cc(Nc3ccc4c(c3)CS(=O)(=O)N4)n[nH]2)C1

>  <obs-value>
> 7.30

$$$$
>  <smiles-record>
CC(C)NC(=O)O[C@@H]1CC[C@H](c2cc(Nc3ccc4c(c3)C(=O)NS4(=O)=O)[nH]n2)C1

>  <obs-value>
> 7.30

$$$$
>  <smiles-record>
Cc1c(Nc2ccc3c(c2)CS(=O)(=O)C3)n[nH]c1[C@H]1CC[C@@H](OC(=O)NC(C)C)C1

>  <obs-value>
6.30 to 7.30

$$$$
>  <smiles-record>
CC(C)NC(=O)O[C@@H]1CC[C@H](c2cc(Nc3cccc4c3CS(=O)(=O)N4)n[nH]2)C1

>  <obs-value>
6.30 to 7.30

$$$$

###

Target: CDK2/CycA2 (Homo sapiens)
Assay: In vitro kinase TR-FRET assay CDK2/CycA2
Type: biochemical
Conditions: enzyme 3 nM, ATP 27 μM, read-out: CDK2 cyclinA2 activity assay: IC50
pIC50: −log10 of the molar value.
metric-name: pIC50

>  <smiles-record>
CC(C)NC(=O)O[C@@H]1CC[C@H](c2cc(Nc3ccc(F)c4c3CCS4(=O)=O)n[nH]2)C1

>  <metric-name>
pIC50

>  <obs-value>
> 7.30

$$$$
>  <smiles-record>
CC(C)NC(=O)O[C@H]1C[C@@H](c2cc(Nc3nccc4c3CCS4(=O)=O)n[nH]2)C1

>  <metric-name>
pIC50

>  <obs-value>
> 7.30

$$$$
>  <smiles-record>
CC(C)NC(=O)O[C@@H]1CC[C@H](c2cc(Nc3cccc4c3N(C)S(=O)(=O)C4)n[nH]2)C1

>  <metric-name>
pIC50

>  <obs-value>
6.00 to 6.30

$$$$
>  <smiles-record>
CC(C)NC(=O)O[C@@H]1CC[C@H](c2cc(Nc3ccc4c(c3)CC(F)(F)C4)n[nH]2)C1

>  <metric-name>
pIC50

>  <obs-value>
> 7.30

$$$$

###

Let's look at some compounds and their measured IC50.
Target: CDK2/CycE1 (Homo sapiens)
Assay: In vitro kinase TR-FRET assay CDK2/CycE1
Assay type: biochemical
Settings: enzyme 0.6 nM, ATP 82 μM, read-out: CDK2 cyclinE1 activity assay: IC50

>  <compound>
CC(C)NC(=O)O[C@@H]1CC[C@H](c2cc(Nc3ccc4c(c3)C(C#N)CC4)n[nH]2)C1 (stereo partly shown)

>  <system-under-test>
CDK2/CycE1 (Homo sapiens)

>  <IC50>
< 50 nM

$$$$
>  <compound>
Cc1c(Nc2ccc3c(c2)CS(=O)(=O)C3)n[nH]c1[C@H]1CC[C@@H](OC(=O)NC(C)(C)C)C1

>  <system-under-test>
CDK2/CycE1 (Homo sapiens)

>  <IC50>
50 to 500 nM

$$$$
>  <compound>
CC(C)NC(=O)O[C@@H]1CC[C@H](c2cc(Nc3cccc4c3CN(C)S4(=O)=O)n[nH]2)C1

>  <system-under-test>
CDK2/CycE1 (Homo sapiens)

>  <IC50>
< 50 nM

$$$$
>  <compound>
CC(C)NC(=O)O[C@H]1CC[C@@H](c2cc(Nc3ccc4c(c3)CNS4(=O)=O)n[nH]2)CC1

>  <system-under-test>
CDK2/CycE1 (Homo sapiens)

>  <IC50>
< 50 nM

$$$$

###

Target: GSK3β (Homo sapiens)
Sequence (P49841 whole entry, species assumed): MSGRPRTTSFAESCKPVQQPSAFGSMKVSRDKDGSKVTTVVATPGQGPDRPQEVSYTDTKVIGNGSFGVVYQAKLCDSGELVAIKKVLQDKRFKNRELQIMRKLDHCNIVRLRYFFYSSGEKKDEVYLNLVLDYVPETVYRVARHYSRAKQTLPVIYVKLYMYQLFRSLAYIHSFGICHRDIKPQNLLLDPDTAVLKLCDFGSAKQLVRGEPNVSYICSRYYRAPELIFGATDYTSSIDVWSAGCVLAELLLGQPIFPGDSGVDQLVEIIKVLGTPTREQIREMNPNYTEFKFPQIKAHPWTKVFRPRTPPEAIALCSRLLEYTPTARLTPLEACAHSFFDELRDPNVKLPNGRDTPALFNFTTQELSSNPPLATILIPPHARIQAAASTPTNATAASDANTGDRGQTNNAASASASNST
Assay: In vitro kinase TR-FRET assay GSK3β
Format: biochemical
Conditions: enzyme 0.6 nM, ATP 7.6 μM
pIC50: −log10 of the molar value.
metric-name: pIC50

>  <smiles-record>
CC(C)NC(=O)O[C@@H]1CC[C@H](c2cc(Nc3ccc4c(c3F)CCS4(=O)=O)n[nH]2)C1

>  <obs-value>
< 6.00

$$$$
>  <smiles-record>
CC(C)NC(=O)O[C@@H]1CC[C@H](c2[nH]nc(Nc3ccc4c(c3)CNS4(=O)=O)c2F)C1

>  <obs-value>
< 6.00

$$$$
>  <smiles-record>
CC(C)NC(=O)O[C@@H]1CC[C@H](c2cc(Nc3nccc4c3CCS4(=O)=O)n[nH]2)C1

>  <obs-value>
6.30 to 7.30

$$$$
>  <smiles-record>
CC(C)NC(=O)O[C@@H]1CC[C@H](c2cc(Nc3cccc4c3CCS4(=O)=O)n[nH]2)C1

>  <obs-value>
6.30 to 7.30

$$$$

###

Biological target: CDK1/cyclinB (Homo sapiens)
Sequence (P06493 whole entry): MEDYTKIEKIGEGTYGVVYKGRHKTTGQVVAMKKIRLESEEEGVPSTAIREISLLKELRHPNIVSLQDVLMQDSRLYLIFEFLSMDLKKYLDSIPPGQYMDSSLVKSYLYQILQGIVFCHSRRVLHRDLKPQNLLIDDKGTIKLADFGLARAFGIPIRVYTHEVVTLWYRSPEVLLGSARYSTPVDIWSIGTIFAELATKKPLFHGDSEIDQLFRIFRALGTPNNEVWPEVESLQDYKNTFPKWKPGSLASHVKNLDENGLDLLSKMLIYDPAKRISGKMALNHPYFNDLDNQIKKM
Sequence (P14635 whole entry partner): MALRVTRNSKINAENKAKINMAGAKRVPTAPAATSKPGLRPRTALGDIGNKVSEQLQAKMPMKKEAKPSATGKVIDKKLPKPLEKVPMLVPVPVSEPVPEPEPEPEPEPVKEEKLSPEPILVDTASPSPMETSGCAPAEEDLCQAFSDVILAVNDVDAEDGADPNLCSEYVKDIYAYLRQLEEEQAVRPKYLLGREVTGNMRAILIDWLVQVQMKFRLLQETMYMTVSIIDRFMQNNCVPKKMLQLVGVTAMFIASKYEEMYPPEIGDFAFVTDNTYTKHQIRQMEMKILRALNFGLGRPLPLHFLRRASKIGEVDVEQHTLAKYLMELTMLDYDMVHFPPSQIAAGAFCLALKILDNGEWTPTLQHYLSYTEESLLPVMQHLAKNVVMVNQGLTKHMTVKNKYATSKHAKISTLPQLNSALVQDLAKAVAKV
Test: In vitro kinase TR-FRET assay CDK1/cyclinB
Format: biochemical
Conditions: enzyme 0.3 nM, ATP 56 μM
pIC50: −log10 of the molar value.

>  <molecule>
CC(C)NC(=O)O[C@@H]1CC[C@H](c2cc(Nc3cccc4c3CNS4(=O)=O)n[nH]2)C1

>  <pIC50>
6.30 to 7.30

$$$$
>  <molecule>
CC(C)NC(=O)O[C@H]1C[C@@H](c2cc(Nc3nccc4c3CCS4(=O)=O)n[nH]2)C1

>  <pIC50>
> 7.30

$$$$
>  <molecule>
CC(C)NC(=O)O[C@@H]1CC[C@H](c2cc(Nc3ccc4c(c3)CS(=O)(=O)N4)n[nH]2)C1

>  <pIC50>
> 7.30

$$$$
>  <molecule>
CC(C)NC(=O)O[C@H]1CC[C@@H](c2cc(Nc3nccc4c3CCS4(=O)=O)n[nH]2)CC1

>  <pIC50>
6.30 to 7.30

$$$$
>  <molecule>
CC(C)NC(=O)O[C@@H]1CC[C@H](c2cc(Nc3nccc4c3CCS4(=O)=O)n[nH]2)C1

>  <pIC50>
6.30 to 7.30

$$$$
>  <molecule>
CC(C)NC(=O)O[C@H]1CC[C@@H](c2cc(Nc3ccc4c(c3)S(=O)(=O)NC4)n[nH]2)CC1

>  <pIC50>
6.30 to 7.30

$$$$
>  <molecule>
CC(C)NC(=O)O[C@@H]1CC[C@H](c2cc(Nc3cccc4c3CS(=O)(=O)C4)n[nH]2)C1

>  <pIC50>
6.30 to 7.30

$$$$
>  <molecule>
CC(C)NC(=O)O[C@@H]1CC[C@H](c2cc(Nc3cccc4c3CS(=O)(=O)N4)n[nH]2)C1

>  <pIC50>
< 6.00

$$$$
>  <molecule>
CC(C)NC(=O)O[C@@H]1CC[C@H](c2cc(Nc3cccc4c3CS(=O)(=O)CC4)n[nH]2)C1

>  <pIC50>
6.30 to 7.30

$$$$
>  <molecule>
CC(C)NC(=O)O[C@@H]1CC[C@H](c2cc(Nc3ccc4c(c3)oc(=O)n4C)n[nH]2)C1

>  <pIC50>
6.30 to 7.30

$$$$
>  <molecule>
CC(C)NC(=O)O[C@@H]1CC[C@H](c2cc(Nc3cccc4c3N(C)S(=O)(=O)C4)n[nH]2)C1

>  <pIC50>
6.30 to 7.30

$$$$
>  <molecule>
CC(C)NC(=O)O[C@@H]1CC[C@H](c2cc(Nc3ccc4c(c3)NS(=O)(=O)C4)n[nH]2)C1

>  <pIC50>
> 7.30

$$$$
>  <molecule>
CC(C)NC(=O)O[C@@H]1CC[C@H](c2cc(Nc3ccc4c(c3)S(=O)(=O)CCC4)n[nH]2)C1

>  <pIC50>
6.30 to 7.30

$$$$
>  <molecule>
CC(C)NC(=O)O[C@@H]1CC[C@H](c2cc(Nc3cccc4c3CCN(C)S4(=O)=O)[nH]n2)C1

>  <pIC50>
6.30 to 7.30

$$$$
>  <molecule>
CC(C)NC(=O)O[C@@H]1CC[C@H](c2cc(Nc3ccc4c(c3)C(=O)NC4)n[nH]2)C1

>  <pIC50>
6.00 to 6.30

$$$$
>  <molecule>
CC(C)NC(=O)O[C@@H]1CC[C@H](c2cc(Nc3cccc4c3CCCS4(=O)=O)n[nH]2)C1

>  <pIC50>
6.30 to 7.30

$$$$
>  <molecule>
CC(C)NC(=O)O[C@@H]1CC[C@H](c2cc(Nc3ccc4c(c3)S(=O)(=O)NC4)n[nH]2)C1

>  <pIC50>
> 7.30

$$$$
>  <molecule>
CC(C)NC(=O)O[C@@H]1CC[C@H](c2cc(Nc3cccc4c3CCS4(=O)=O)n[nH]2)C1

>  <pIC50>
6.30 to 7.30

$$$$
>  <molecule>
CC(C)NC(=O)O[C@@H]1CC[C@H](c2[nH]nc(Nc3ccc4c(c3)CNS4(=O)=O)c2F)C1

>  <pIC50>
6.30 to 7.30

$$$$
>  <molecule>
Cc1c(Nc2ccc3c(c2)CS(=O)(=O)C3)n[nH]c1[C@H]1CC[C@@H](OC(=O)NC(C)(C)C)C1

>  <pIC50>
< 6.00

$$$$
>  <molecule>
CC(C)NC(=O)O[C@@H]1CC[C@H](c2cc(Nc3cc4c(cc3F)S(=O)(=O)CC4)n[nH]2)C1

>  <pIC50>
< 6.00

$$$$
>  <molecule>
CC(C)(C)NC(=O)O[C@@H]1CC[C@H](c2cc(Nc3nccc4c3CCS4(=O)=O)n[nH]2)C1

>  <pIC50>
> 7.30

$$$$
>  <molecule>
CC(C)NC(=O)O[C@@H]1CC[C@H](c2cc(Nc3ccc4c(c3)C(C#N)CC4)n[nH]2)C1 (stereo partly drawn)

>  <pIC50>
6.30 to 7.30

$$$$
>  <molecule>
CC(C)NC(=O)O[C@@H]1CC[C@H](c2cc(Nc3ccc(F)c4c3CNS4(=O)=O)[nH]n2)C1

>  <pIC50>
> 7.30

$$$$
>  <molecule>
CC(C)NC(=O)O[C@@H]1CC[C@H](c2cc(Nc3ccc4c(c3)CCC4C#N)n[nH]2)C1 (stereo partly drawn)

>  <pIC50>
6.30 to 7.30

$$$$
>  <molecule>
CC(C)NC(=O)O[C@@H]1CC[C@H](c2cc(Nc3ccc(F)c4c3CN(C)S4(=O)=O)n[nH]2)C1

>  <pIC50>
6.30 to 7.30

$$$$
>  <molecule>
CC(C)NC(=O)O[C@@H]1CC[C@H](c2cc(Nc3cccc4c3CCNS4(=O)=O)n[nH]2)C1

>  <pIC50>
> 7.30

$$$$
>  <molecule>
CC(C)NC(=O)O[C@@H]1CC[C@H](c2cc(Nc3ccc4c(c3)C(=O)NS4(=O)=O)[nH]n2)C1

>  <pIC50>
< 6.00

$$$$
>  <molecule>
CC(C)NC(=O)O[C@@H]1CC[C@H](c2cc(Nc3ccc4c(c3)CNC4=O)n[nH]2)C1

>  <pIC50>
6.00 to 6.30

$$$$
>  <molecule>
CC(C)NC(=O)O[C@H]1CC[C@@H](c2cc(Nc3ccc4c(c3)CNS4(=O)=O)n[nH]2)CC1

>  <pIC50>
6.30 to 7.30

$$$$
